B1: LINE1-mini (parent)
chain: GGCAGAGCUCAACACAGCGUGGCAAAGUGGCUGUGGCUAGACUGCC

variants of: B1; experiment: self-cleavage, relative activity (ratio to wild type); higher = more cleavage; in vitro, sequencing; the parent is a self-cleaving ribozyme
Each entry falls in a class defined on self-cleavage; the bands are low bracket: < 0.05; middle bracket: ≥ 0.05 and < 0.1; high bracket: ≥ 0.1

Consider the following illustrative entries.
mutation: G1C U32G
classLabel: low bracket
//
mutation: G35U C46A
classLabel: high bracket
//
mutation: G7U U32G
classLabel: high bracket
//
mutation: C23G A39G
classLabel: middle bracket
//
mutation: A14C U38G
classLabel: low bracket
//
mutation: C23A U28A
classLabel: high bracket
//
mutation: G36U C42U
classLabel: middle bracket
//
mutation: C10U A12C
classLabel: low bracket
//
mutation: U20A U28C
classLabel: high bracket
//
mutation: G7C A39G
classLabel: middle bracket

# bin lookup: classify A24C G36A by its self-cleavage
high bracket

# bin lookup: classify G17U G29A by its self-cleavage
high bracket

# bin lookup: classify C23A U28G by its self-cleavage
high bracket
